experiment: Cytotoxicity against human SH-SY5Y cells assessed as cell viability at 10 uM after 24 hrs by MTT assay; assay type: cell-based; conditions: read-out: Activity
quantity.kind: viability at 24 h, 10 µM (%)
Respond with the bare value in %.

Query :: Entry under review: COc1cc2c(cc1OC)C(Cc1ccc(OCCCCCCN3CCCCC3C)cc1)NCC2 (stereo unspecified) . Reported viability at 24 h, 10 µM?
Result :: 91.1

###

target: Acetylcholinesterase (Electrophorus electricus)
Sequence (O42275 whole entry): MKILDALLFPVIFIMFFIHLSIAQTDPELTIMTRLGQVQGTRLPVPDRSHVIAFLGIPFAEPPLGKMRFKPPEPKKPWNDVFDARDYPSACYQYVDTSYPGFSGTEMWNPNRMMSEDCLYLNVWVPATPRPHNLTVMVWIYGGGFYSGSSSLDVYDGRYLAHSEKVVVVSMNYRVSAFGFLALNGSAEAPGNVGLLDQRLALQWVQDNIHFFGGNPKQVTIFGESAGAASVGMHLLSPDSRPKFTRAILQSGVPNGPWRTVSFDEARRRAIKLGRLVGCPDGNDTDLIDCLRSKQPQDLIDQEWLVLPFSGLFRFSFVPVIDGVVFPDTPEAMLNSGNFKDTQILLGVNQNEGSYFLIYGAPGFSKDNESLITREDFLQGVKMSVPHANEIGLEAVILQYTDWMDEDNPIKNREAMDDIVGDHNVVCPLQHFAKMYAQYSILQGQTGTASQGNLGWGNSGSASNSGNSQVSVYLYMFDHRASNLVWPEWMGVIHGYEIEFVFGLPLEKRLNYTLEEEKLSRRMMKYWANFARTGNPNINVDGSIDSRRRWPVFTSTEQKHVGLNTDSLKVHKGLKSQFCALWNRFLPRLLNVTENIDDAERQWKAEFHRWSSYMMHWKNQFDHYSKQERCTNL
Reported values of IC50 for individual entries
Field format: number, assumed µM, no unit text.

// below: answered compounds
[[record]]
compound = "COc1cc2c(cc1OC)C(Cc1ccc(OCCCCCCN3CCCC3)cc1)NCC2 (stereo not given)"
quantitative_result = 1.28

[[record]]
compound = "COc1cc2c(cc1OC)C(Cc1ccc(OCCCCCCN3CCC(O)(Cc4ccccc4)CC3)cc1)NCC2 (stereo not given)"
quantitative_result = 41.7

[[record]]
compound = "COc1cc2c(cc1OC)C(Cc1ccc(OCCCCCCN3CCOCC3)cc1)NCC2 (stereo not given)"
quantitative_result = 28.6

[[record]]
compound = "CCN(CC)CCCOc1ccc(CC2NCCc3cc(OC)c(OC)cc32)cc1 (stereo not given)"
quantitative_result = 13.2

[[record]]
compound = "COc1cc2c(cc1OC)C(Cc1ccc(OCCCCCCN3CCCC3C)cc1)NCC2 (stereo not given)"
quantitative_result = 1.34


Query :: Any idea what IC50 was measured for CCCCN(CCCC)CCCCCCOc1ccc(CC2NCCc3cc(OC)c(OC)cc32)cc1 (stereo not given) ?
Result :: 3.43

Query :: Find the recorded IC50 belonging to CCN(CC)CCCCOc1ccc(CC2NCCc3cc(OC)c(OC)cc32)cc1 (stereo not given) and report it.
Result :: 7.58

Query :: Request the reported IC50 associated with COc1cc2c(cc1OC)C(Cc1ccc(OCCCCCCN3CCCCC3C)cc1)NCC2 (stereo not given)
Result :: 0.95

Query :: State the recorded IC50 for this entry: COc1cc2c(cc1OC)C(Cc1ccc(OCCCCCCN3CCN(Cc4ccccc4)CC3)cc1)NCC2 (stereo not given)
Result :: 53.5
